System: α1-GABAA receptor
Assay: Ligand-binding assay, competitive with radiolabeled flumazenil, cerebellum membranes
Details: Affinity for α1-GABAA receptor; 10^-7M test compound; rat cerebellum membranes; radiolabeled flumazenil 1 nM
Class field: derived from % Inhibition 10^−7M; ranges group A (below 40%), group B (40% to below 80%), group C (80% or more)

- smiles.structure: "Cc1ccc(-c2nc3ccc(C)cn3c2CNC(=O)c2ccccn2)cc1"
  label.value: "group B"
- smiles.structure: "Cc1ccc(-c2nc3ccc(C)cn3c2CNC(=O)c2csc(C)n2)cc1"
  label.value: "group C"
- smiles.structure: "Cc1ccc(-c2nc3ccc(C)cn3c2CNC(=O)c2ccncc2)cc1"
  label.value: "group A"
- smiles.structure: "Cc1ccc(-c2nc3ccc(C)cn3c2CNC(=O)c2cscn2)cc1"
  label.value: "group B"
- smiles.structure: "C#CCN(Cc1c(-c2ccc(C)cc2)nc2ccc(C)cn12)C(=O)C1CC1"
  label.value: "group A"
- smiles.structure: "Cc1ccc(-c2nc3ccc(C)cn3c2CNC(=O)c2nccn2C)cc1"
  label.value: "group C"
- smiles.structure: "Cc1ccc(-c2nc3ccc(C)cn3c2CNC(=O)c2ccc(C)n2C)cc1"
  label.value: "group A"
- smiles.structure: "Cc1ccc(-c2nc3ccc(C)cn3c2CN(C)C(=O)c2ncc(F)cc2F)cc1"
  label.value: "group A"
